Value source: patent US20240043928A1

Test: Phase I study NCT02841540: plasma pharmacokinetics
Assay type: in vivo, human
Conditions: human, oral; 7.0 mg once daily, plasma, geometric mean (CV %)
property.label: Cmax (ng/mL)
Give your result in ng/mL as a bare value.

Data request, read-out Cmax, for `C/C(=C\C=C\[C@@H](C)c1ccccn1)[C@H]1OC(=O)C[C@H](O)CC[C@@](C)(O)[C@@H](OC(=O)N2CCN(C)CC2)/C=C/[C@@H]1C` 9.61

----------
Assay: Phase I study NCT02841540: plasma pharmacokinetics
Format: in vivo, human
Settings: human, oral; 2.0 mg once daily, plasma, geometric mean (CV %); read-out: AUC0-24
property.label: AUC(0-t) (ng·h/mL)
Give your result in ng·h/mL as a bare value.

Data request, read-out AUC(0-t), for `C/C(=C\C=C\[C@@H](C)c1ccccn1)[C@H]1OC(=O)C[C@H](O)CC[C@@](C)(O)[C@@H](OC(=O)N2CCN(C)CC2)/C=C/[C@@H]1C` 8.39

----------
Experiment: Phase I study NCT02841540: plasma pharmacokinetics
Type: in vivo, human
Settings: human; 20 mg once daily, plasma, geometric mean (CV %)
property.label: half-life
Kindly write the number and append the unit.

Data request, read-out half-life, for C/C(=C\C=C\[C@@H](C)c1ccccn1)[C@H]1OC(=O)C[C@H](O)CC[C@@](C)(O)[C@@H](OC(=O)N2CCN(C)CC2)/C=C/[C@@H]1C [Compound 1] 5.1 h

----------
Experiment: Phase I study NCT02841540: plasma pharmacokinetics
Type: in vivo, human
Details: human, oral; 40 mg once daily, plasma, geometric mean (CV %); read-out: AUC0-24
Experimental: Plasma samples for PK analyses were collected during Cycle 1 on Day 1 and Day 4 (pre-dose and 0.5, 1, 2, 4, 6, 8, 10, and 24 hours post-dose), and pre-dose and 4 hours post-dose on Cycle 1 on Day 15. PK analyses were conducted using Phoenix® VVinNonlin. […] Baseline splicing mutations were identified using the Focus:Myeloid™ Next Generation Sequencing (NGS) panel determined centrally by Cancer Genetics Inc. (Rutherford, NJ). […]
property.label: AUC(0-t) (ng·h/mL)
Give your result in ng·h/mL as a bare value.

Data request, read-out AUC(0-t), for `C/C(=C\C=C\[C@@H](C)c1ccccn1)[C@H]1OC(=O)C[C@H](O)CC[C@@](C)(O)[C@@H](OC(=O)N2CCN(C)CC2)/C=C/[C@@H]1C` 265

----------
Test: Phase I study NCT02841540: plasma pharmacokinetics
Assay type: in vivo, human
Conditions: human, oral; 3.5 mg once daily, plasma, geometric mean (CV %)
property.label: half-life (h)
Give your result in h as a bare value.

Data request, read-out half-life, for C/C(=C\C=C\[C@@H](C)c1ccccn1)[C@H]1OC(=O)C[C@H](O)CC[C@@](C)(O)[C@@H](OC(=O)N2CCN(C)CC2)/C=C/[C@@H]1C [Compound 1] 5.4

----------
Assay: Phase I study NCT02841540: plasma pharmacokinetics
Type: in vivo, human
Settings: human, oral; 10 mg once daily, plasma, geometric mean (CV %); read-out: AUC0-24
property.label: AUC(0-t)
Kindly write the number and append the unit.

Data request, read-out AUC(0-t), for C/C(=C\C=C\[C@@H](C)c1ccccn1)[C@H]1OC(=O)C[C@H](O)CC[C@@](C)(O)[C@@H](OC(=O)N2CCN(C)CC2)/C=C/[C@@H]1C [Compound 1] 51 ng·h/mL

----------
Assay: Phase I study NCT02841540: plasma pharmacokinetics
Type: in vivo, human
Conditions: human, oral; 12 mg once daily, plasma, geometric mean (CV %)
property.label: Cmax (ng/mL)
Give your result in ng/mL as a bare value.

Data request, read-out Cmax, for C/C(=C\C=C\[C@@H](C)c1ccccn1)[C@H]1OC(=O)C[C@H](O)CC[C@@](C)(O)[C@@H](OC(=O)N2CCN(C)CC2)/C=C/[C@@H]1C [Compound 1] 12.2

----------
Experiment: Phase I study NCT02841540: plasma pharmacokinetics
Assay type: in vivo, human
Details: human, oral; 7.0 mg once daily, plasma, geometric mean (CV %); read-out: AUC0-24
property.label: AUC(0-t) (ng·h/mL)
Give your result in ng·h/mL as a bare value.

Data request, read-out AUC(0-t), for C/C(=C\C=C\[C@@H](C)c1ccccn1)[C@H]1OC(=O)C[C@H](O)CC[C@@](C)(O)[C@@H](OC(=O)N2CCN(C)CC2)/C=C/[C@@H]1C [Compound 1] 39.4

----------
Experiment: Phase I study NCT02841540: plasma pharmacokinetics
Type: in vivo, human
Conditions: human, oral; 14 mg once daily, plasma, geometric mean (CV %)
property.label: half-life (h)
Give your result in h as a bare value.

Data request, read-out half-life, for `C/C(=C\C=C\[C@@H](C)c1ccccn1)[C@H]1OC(=O)C[C@H](O)CC[C@@](C)(O)[C@@H](OC(=O)N2CCN(C)CC2)/C=C/[C@@H]1C` 5.1

----------
Test: Phase I study NCT02841540: plasma pharmacokinetics
Assay type: in vivo, human
Details: human, oral; 40 mg once daily, plasma, geometric mean (CV %)
property.label: Cmax

Data request, read-out Cmax, for C/C(=C\C=C\[C@@H](C)c1ccccn1)[C@H]1OC(=O)C[C@H](O)CC[C@@](C)(O)[C@@H](OC(=O)N2CCN(C)CC2)/C=C/[C@@H]1C [Compound 1] 73.3 ng/mL

----------
Experiment: Phase I study NCT02841540: plasma pharmacokinetics
Assay type: in vivo, human
Conditions: human; 30 mg once daily, plasma, geometric mean (CV %); read-out: AUC0-24
property.label: AUC(0-t) (ng·h/mL)
Give your result in ng·h/mL as a bare value.

Data request, read-out AUC(0-t), for `C/C(=C\C=C\[C@@H](C)c1ccccn1)[C@H]1OC(=O)C[C@H](O)CC[C@@](C)(O)[C@@H](OC(=O)N2CCN(C)CC2)/C=C/[C@@H]1C` 159

----------
Assay: Phase I study NCT02841540: plasma pharmacokinetics
Format: in vivo, human
Settings: human, oral; 1.0 mg once daily, plasma, geometric mean (CV %)
property.label: half-life (h)
Give your result in h as a bare value.

Data request, read-out half-life, for C/C(=C\C=C\[C@@H](C)c1ccccn1)[C@H]1OC(=O)C[C@H](O)CC[C@@](C)(O)[C@@H](OC(=O)N2CCN(C)CC2)/C=C/[C@@H]1C [Compound 1] 5.1

----------
Assay: Phase I study NCT02841540: plasma pharmacokinetics
Type: in vivo, human
Conditions: human, oral; 1.0 mg once daily, plasma, median
property.label: Tmax (h)
Give your result in h as a bare value.

Data request, read-out Tmax, for `C/C(=C\C=C\[C@@H](C)c1ccccn1)[C@H]1OC(=O)C[C@H](O)CC[C@@](C)(O)[C@@H](OC(=O)N2CCN(C)CC2)/C=C/[C@@H]1C` 2

----------
Experiment: Phase I study NCT02841540: plasma pharmacokinetics
Type: in vivo, human
Details: human, oral; 10 mg once daily, plasma, median
property.label: Tmax (h)
Give your result in h as a bare value.

Data request, read-out Tmax, for C/C(=C\C=C\[C@@H](C)c1ccccn1)[C@H]1OC(=O)C[C@H](O)CC[C@@](C)(O)[C@@H](OC(=O)N2CCN(C)CC2)/C=C/[C@@H]1C [Compound 1] 1

----------
Test: Phase I study NCT02841540: plasma pharmacokinetics
Format: in vivo, human
Details: human, oral; 12 mg once daily, plasma, geometric mean (CV %); read-out: AUC0-24
property.label: AUC(0-t) (ng·h/mL)
Give your result in ng·h/mL as a bare value.

Data request, read-out AUC(0-t), for `C/C(=C\C=C\[C@@H](C)c1ccccn1)[C@H]1OC(=O)C[C@H](O)CC[C@@](C)(O)[C@@H](OC(=O)N2CCN(C)CC2)/C=C/[C@@H]1C` 64.7

----------
Test: Phase I study NCT02841540: plasma pharmacokinetics
Type: in vivo, human
Details: human; 20 mg once daily, plasma, geometric mean (CV %)
Protocol: Plasma samples for PK analyses were collected during Cycle 1 on Day 1 and Day 4 (pre-dose and 0.5, 1, 2, 4, 6, 8, 10, and 24 hours post-dose), and pre-dose and 4 hours post-dose on Cycle 1 on Day 15. PK analyses were conducted using Phoenix® VVinNonlin. […] Baseline splicing mutations were identified using the Focus:Myeloid™ Next Generation Sequencing (NGS) panel determined centrally by Cancer Genetics Inc. (Rutherford, NJ). […]
property.label: Cmax (µg/mL)
Give your result in µg/mL as a bare value.

Data request, read-out Cmax, for C/C(=C\C=C\[C@@H](C)c1ccccn1)[C@H]1OC(=O)C[C@H](O)CC[C@@](C)(O)[C@@H](OC(=O)N2CCN(C)CC2)/C=C/[C@@H]1C [Compound 1] 0.0336

----------
Experiment: Phase I study NCT02841540: plasma pharmacokinetics
Format: in vivo, human
Settings: human, oral; 5.0 mg once daily, plasma, geometric mean (CV %); read-out: AUC0-24
property.label: AUC(0-t) (ng·h/mL)
Give your result in ng·h/mL as a bare value.

Data request, read-out AUC(0-t), for `C/C(=C\C=C\[C@@H](C)c1ccccn1)[C@H]1OC(=O)C[C@H](O)CC[C@@](C)(O)[C@@H](OC(=O)N2CCN(C)CC2)/C=C/[C@@H]1C` 24.5
